Where do the numbers come from? From patent US12624112.

Target: T1, ST2 on the effector cells (KU812, KU812/NF-κB-1#, HUVEC, HMC-1) (human, UniProt Q01638 19-556)
T1 sequence (looked up): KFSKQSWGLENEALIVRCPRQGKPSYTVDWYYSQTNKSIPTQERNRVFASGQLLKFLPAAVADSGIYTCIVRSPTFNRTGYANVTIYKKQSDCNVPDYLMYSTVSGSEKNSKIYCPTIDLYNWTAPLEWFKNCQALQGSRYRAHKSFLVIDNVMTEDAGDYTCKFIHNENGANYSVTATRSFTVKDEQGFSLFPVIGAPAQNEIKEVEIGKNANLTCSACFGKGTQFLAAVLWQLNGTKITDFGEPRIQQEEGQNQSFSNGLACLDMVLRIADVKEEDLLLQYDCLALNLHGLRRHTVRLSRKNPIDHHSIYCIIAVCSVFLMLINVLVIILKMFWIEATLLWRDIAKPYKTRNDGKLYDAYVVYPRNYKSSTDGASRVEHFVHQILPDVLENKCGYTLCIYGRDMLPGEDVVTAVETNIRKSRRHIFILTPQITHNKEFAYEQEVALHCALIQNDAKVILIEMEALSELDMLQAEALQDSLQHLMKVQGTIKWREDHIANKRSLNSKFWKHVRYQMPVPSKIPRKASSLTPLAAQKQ
Experiment: cell-based or functional assay
Readout Kind: IC50, inhibition of KU812-IL5 production promoted by reduced IL33 (µg/mL)

{"columns": ["Binder", "Units Text", "Result"],
 "data": [
  ["5888-379-H1L0 (antibody, human IgG4 S228P, kappa, V domains shown, Humanized antibody) VH: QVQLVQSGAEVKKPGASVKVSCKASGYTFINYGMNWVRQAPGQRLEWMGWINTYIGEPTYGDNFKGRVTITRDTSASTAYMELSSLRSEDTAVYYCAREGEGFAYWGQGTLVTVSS VL: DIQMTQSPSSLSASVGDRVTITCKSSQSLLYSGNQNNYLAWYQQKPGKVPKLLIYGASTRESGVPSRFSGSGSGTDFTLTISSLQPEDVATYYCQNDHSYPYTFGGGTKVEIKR", "µg/mL", 2.87],
  ["5888-153-H3L1 (antibody, human IgG4 S228P, kappa, V domains shown, Humanized antibody) VH: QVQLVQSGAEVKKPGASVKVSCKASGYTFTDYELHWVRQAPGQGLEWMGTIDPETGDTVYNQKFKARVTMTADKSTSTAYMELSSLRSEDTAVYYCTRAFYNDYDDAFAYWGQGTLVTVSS VL: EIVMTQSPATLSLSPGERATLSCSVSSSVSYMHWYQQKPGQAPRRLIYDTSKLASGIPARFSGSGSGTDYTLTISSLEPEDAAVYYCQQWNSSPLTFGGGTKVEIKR", "µg/mL", 0.265],
  ["5888-116-H0L1 (antibody, human IgG4 S228P, kappa, V domains shown, Humanized antibody) VH: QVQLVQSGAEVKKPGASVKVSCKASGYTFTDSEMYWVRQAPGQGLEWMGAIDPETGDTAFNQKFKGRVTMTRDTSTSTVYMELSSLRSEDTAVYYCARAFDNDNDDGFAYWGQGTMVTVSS VL: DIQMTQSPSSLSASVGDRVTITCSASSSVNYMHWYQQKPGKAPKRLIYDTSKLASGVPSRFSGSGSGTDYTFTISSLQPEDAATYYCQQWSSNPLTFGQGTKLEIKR", "µg/mL", 0.124]
]}
